Listed molecules paired with reported half-life
Test: Metabolic stability in rat liver microsomes assessed as half life […]
Assay type: ADME, Microsome

1) Cc1ccc(Oc2ccc(N(C[C@@H](C(=O)NO)N3CCOCC3)S(C)(=O)=O)cc2)cc1; 10 min
2) Cc1ccc(Oc2ccc(N(C[C@H](NC(C)C)C(=O)NO)S(C)(=O)=O)cc2)cc1; < 9 min
3) Cc1ccc(Oc2ccc(N(C[C@H](Nc3cccc(F)c3)C(=O)NO)S(C)(=O)=O)cc2)cc1; < 9 min

Continue with the molecule presented below.
Memo: "CS(=O)(=O)N(C[C@@H](C(=O)NO)N1CCOCC1)c1ccc(Oc2ccc(C(F)(F)F)cc2)cc1" , reported half-life: > 120 min

----------
Target chain: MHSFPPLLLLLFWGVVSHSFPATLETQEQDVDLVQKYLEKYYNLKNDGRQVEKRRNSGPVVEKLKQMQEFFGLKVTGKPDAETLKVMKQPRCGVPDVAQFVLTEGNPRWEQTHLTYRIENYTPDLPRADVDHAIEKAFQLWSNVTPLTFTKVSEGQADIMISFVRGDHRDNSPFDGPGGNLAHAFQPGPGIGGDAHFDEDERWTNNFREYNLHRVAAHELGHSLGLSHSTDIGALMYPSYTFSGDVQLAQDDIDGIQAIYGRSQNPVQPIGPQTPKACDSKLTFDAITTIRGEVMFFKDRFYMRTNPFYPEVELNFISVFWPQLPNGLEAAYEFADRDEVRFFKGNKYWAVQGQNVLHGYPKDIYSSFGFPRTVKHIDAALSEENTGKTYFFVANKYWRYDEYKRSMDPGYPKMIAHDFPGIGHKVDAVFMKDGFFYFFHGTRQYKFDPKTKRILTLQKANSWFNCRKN
The following molecules are listed with their measured IC50 values.

1. CS(=O)(=O)N(C[C@H](O)C(=O)NO)c1ccc(Oc2ccc(C(F)(F)F)cc2)cc1; > 10 µM

The recorded IC50 for entry "Cc1ccc(Oc2ccc(N(C[C@H](NC(C)C)C(=O)O)S(C)(=O)=O)cc2)cc1" equals > 10 µM

Notebook: "Cc1ccc(Oc2ccc(N(C[C@H](N[C@@H](C)c3ccccc3)C(=O)NO)S(C)(=O)=O)cc2)cc1" , IC50 read as > 10 µM

Value of measured IC50 for the entry "COc1cccc(N[C@@H](CN(c2ccc(Oc3ccc(C)cc3)cc2)S(C)(=O)=O)C(=O)NO)c1" : > 10 µM

The recorded IC50 for "CC(C)N[C@@H](CN(c1ccc(Oc2ccc(C(F)(F)F)cc2)cc1)S(C)(=O)=O)C(=O)NO" is > 10 µM

----------
Experiment: AUC in rat at 0.5 mg/kg, iv
Type: ADME, organism-based
Design: dose 0.5 mg/kg, route intravenous
Settings: plasma
Result Type: AUC
Answer format: value, then unit.

Record "Cc1ccc(Oc2ccc(N(C[C@@H](C(=O)NO)N3CCOCC3)S(C)(=O)=O)cc2)cc1" . Reported AUC: 670 ng·h/mL

----------
Assay: Metabolic stability in human liver microsomes assessed as half life […]
Type: ADME, Microsome
Result Type: half-life

Below, each entry is followed by its recorded half-life result.
1. Cc1ccc(Oc2ccc(N(C[C@@H](C(=O)NO)N3CCOCC3)S(C)(=O)=O)cc2)cc1; > 120 min
2. Cc1ccc(Oc2ccc(N(C[C@H](Nc3cccc(F)c3)C(=O)NO)S(C)(=O)=O)cc2)cc1; < 9 min
3. CS(=O)(=O)N(C[C@@H](C(=O)NO)N1CCOCC1)c1ccc(Oc2ccc(C(F)(F)F)cc2)cc1; > 120 min

Next molecule, please.
half-life measured on "Cc1ccc(Oc2ccc(N(C[C@H](NC(C)C)C(=O)NO)S(C)(=O)=O)cc2)cc1" = 49 min
